Test: Clinical study NG100-101: plasma pharmacokinetics of metopimazine and metabolites after a single oral 60 mg dose
Type: in vivo, healthy adult subjects (human)
Settings: both sexes, human, plasma, po, 60 mg, plasma, mean of 4 subjects, single oral 60 mg MPZ dose; read-out: MPZS C max
readout-label: Cmax (ng/mL)
Respond with the bare value in ng/mL.

Lab book: Cmax of CS(=O)(=O)c1ccc2c(c1)N(CCCN1CCC(C(N)=O)CC1)c1ccccc1[S+]2[O-] (stereo not shown) [MPZS, metopimazine sulfoxide] noted as 4.9

* * *

Experiment: Dog PK study, single oral dose of metopimazine
Assay type: in vivo, beagle dogs
Conditions: beagle, plasma; Dog (male), 10 mg/kg metopimazine single oral dose, mean (SD)
Can you tell me AUC(0-inf) for the items I'm about to list?

Lab book: AUC(0-inf) of CS(=O)(=O)c1ccc2c(c1)N(CCCN1CCC(C(N)=O)CC1)c1ccccc1S2 [MPZ, metopimazine] noted as 2600 ng·h/mL

Lab book: AUC(0-inf) of CS(=O)(=O)c1ccc2c(c1)N(CCCN1CCC(C(=O)O)CC1)c1ccccc1S2 [MPZA, metopimazine acid] noted as 728 ng·h/mL

* * *

Assay: Clinical study NG100-101: plasma pharmacokinetics of metopimazine and metabolites after a single oral 60 mg dose
Assay type: in vivo, healthy adult subjects (human)
Conditions: both sexes, human, plasma, po, 60 mg, plasma, individual subjects, single oral 60 mg MPZ dose; read-out: MPZA AUClast
Experimental: The clinical study was conducted at Biotrial Rennes, in accordance with the Declaration of Helsinki. […] Plasma concentrations of metopimazine, metopimazine acid and metopimazine sulfoxide were quantified using LC–MS/MS methods. […] The extracted samples were analyzed twice, once for quantification of MPZ and MPZA and again for MPZS quantification as described below. […] The following m/z transitions were monitored: metopimazine 446.3 → 141.1 and metopimazine acid 447.2 → 142.1. […]
readout-label: AUC(0-t) (ng·h/mL)
Respond with the bare value in ng·h/mL.

Lab book: AUC(0-t) of CS(=O)(=O)c1ccc2c(c1)N(CCCN1CCC(C(=O)O)CC1)c1ccccc1S2 [MPZA, metopimazine acid] noted as 1590

* * *

Can you tell me Tmax for the items I'm about to list?
Assay: Rat PK study, single oral dose of metopimazine
Type: in vivo, Sprague Dawley rats
Conditions: Sprague Dawley, plasma; Rat (female), 45 mg/kg metopimazine single oral dose, mean (SD)
Respond with the bare value in h.

Lab book: Tmax of `CS(=O)(=O)c1ccc2c(c1)N(CCCN1CCC(C(N)=O)CC1)c1ccccc1S2` noted as 4

Lab book: Tmax of `CS(=O)(=O)c1ccc2c(c1)N(CCCN1CCC(C(=O)O)CC1)c1ccccc1S2` noted as 3

* * *

Experiment: Clinical study NG100-101: plasma pharmacokinetics of metopimazine and metabolites after a single oral 60 mg dose
Assay type: in vivo, healthy adult subjects (human)
Details: both sexes, human, plasma, po, 60 mg, plasma, mean of 4 subjects, single oral 60 mg MPZ dose; read-out: MPZ C max
readout-label: Cmax (ng/mL)
Respond with the bare value in ng/mL.

Lab book: Cmax of `CS(=O)(=O)c1ccc2c(c1)N(CCCN1CCC(C(N)=O)CC1)c1ccccc1S2` noted as 93.9

* * *

Experiment: Dog PK study, single oral dose of metopimazine
Format: in vivo, beagle dogs
Conditions: beagle, plasma; Dog (male), 10 mg/kg metopimazine single oral dose, mean (SD)
Can you tell me Tmax for the items I'm about to list?
Respond with the bare value in h.

Lab book: Tmax of `CS(=O)(=O)c1ccc2c(c1)N(CCCN1CCC(C(N)=O)CC1)c1ccccc1S2` noted as 0.83

Lab book: Tmax of `CS(=O)(=O)c1ccc2c(c1)N(CCCN1CCC(C(=O)O)CC1)c1ccccc1S2` noted as 2

* * *

Test: Rat PK study, single oral dose of metopimazine
Format: in vivo, Sprague Dawley rats
Settings: Sprague Dawley, plasma; Rat (male), 45 mg/kg metopimazine single oral dose, mean (SD)
Can you tell me AUC(0-inf) for the items I'm about to list?
Respond with the bare value in ng·h/mL.

Lab book: AUC(0-inf) of `CS(=O)(=O)c1ccc2c(c1)N(CCCN1CCC(C(N)=O)CC1)c1ccccc1S2` noted as 8170

Lab book: AUC(0-inf) of `CS(=O)(=O)c1ccc2c(c1)N(CCCN1CCC(C(=O)O)CC1)c1ccccc1S2` noted as 755

* * *

Assay: Rat PK study, single oral dose of metopimazine
Assay type: in vivo, Sprague Dawley rats
Details: Sprague Dawley, plasma; Rat (female), 45 mg/kg metopimazine single oral dose, mean (SD)
readout-label: Cmax (ng/mL)
Respond with the bare value in ng/mL.

Lab book: Cmax of CS(=O)(=O)c1ccc2c(c1)N(CCCN1CCC(C(N)=O)CC1)c1ccccc1S2 [MPZ, metopimazine] noted as 1730

Lab book: Cmax of CS(=O)(=O)c1ccc2c(c1)N(CCCN1CCC(C(=O)O)CC1)c1ccccc1S2 [MPZA, metopimazine acid] noted as 110

* * *

Can you tell me Cmax for the items I'm about to list?
Test: Dog PK study, single oral dose of metopimazine
Type: in vivo, beagle dogs
Conditions: beagle, plasma; Dog (male), 10 mg/kg metopimazine single oral dose, mean (SD)
Description: The pharmacokinetics of metopimazine (parent) and metopimazine acid (metabolite) were evaluated in three male, beagle dogs following a single oral dose of 10 mg/kg metopimazine (free base). The dogs were obtained from Marshall BioResources. Animals were weighed prior to each dose administration for the purpose of dose calculation. […] After centrifugation, the supernatant was removed and stored frozen in a −70°C freezer until analyzed by LC–MS/MS. […]
Respond with the bare value in µg/mL.

Lab book: Cmax of `CS(=O)(=O)c1ccc2c(c1)N(CCCN1CCC(C(N)=O)CC1)c1ccccc1S2` noted as 0.416

Lab book: Cmax of `CS(=O)(=O)c1ccc2c(c1)N(CCCN1CCC(C(=O)O)CC1)c1ccccc1S2` noted as 0.103

* * *

Experiment: Clinical study NG100-101: plasma pharmacokinetics of metopimazine and metabolites after a single oral 60 mg dose
Format: in vivo, healthy adult subjects (human)
Settings: both sexes, human, plasma, po, 60 mg, 4 subjects, single oral 60 mg MPZ dose; read-out: Tmax, range over subjects
readout-label: Tmax

Lab book: Tmax of `CS(=O)(=O)c1ccc2c(c1)N(CCCN1CCC(C(=O)O)CC1)c1ccccc1S2` noted as 1.25 to 3 h

* * *

Test: Clinical study NG100-101: plasma pharmacokinetics of metopimazine and metabolites after a single oral 60 mg dose
Assay type: in vivo, healthy adult subjects (human)
Conditions: both sexes, human, plasma, po, 60 mg, plasma, mean of 4 subjects, single oral 60 mg MPZ dose; read-out: MPZA AUClast
Protocol: The clinical study was conducted at Biotrial Rennes, in accordance with the Declaration of Helsinki. […] Plasma concentrations of metopimazine, metopimazine acid and metopimazine sulfoxide were quantified using LC–MS/MS methods. […] The extracted samples were analyzed twice, once for quantification of MPZ and MPZA and again for MPZS quantification as described below. […] The following m/z transitions were monitored: metopimazine 446.3 → 141.1 and metopimazine acid 447.2 → 142.1. […]
readout-label: AUC(0-t) (ng·h/mL)
Respond with the bare value in ng·h/mL.

Lab book: AUC(0-t) of `CS(=O)(=O)c1ccc2c(c1)N(CCCN1CCC(C(=O)O)CC1)c1ccccc1S2` noted as 2080

* * *

Experiment: Clinical study NG100-101: plasma pharmacokinetics of metopimazine and metabolites after a single oral 60 mg dose
Type: in vivo, healthy adult subjects (human)
Details: both sexes, human, plasma, po, 60 mg, plasma, mean of 4 subjects, single oral 60 mg MPZ dose; read-out: MPZ T max
readout-label: Tmax (h)
Respond with the bare value in h.

Lab book: Tmax of `CS(=O)(=O)c1ccc2c(c1)N(CCCN1CCC(C(N)=O)CC1)c1ccccc1S2` noted as 1.4

* * *

Assay: Clinical study NG100-101: plasma pharmacokinetics of metopimazine and metabolites after a single oral 60 mg dose
Assay type: in vivo, healthy adult subjects (human)
Settings: both sexes, human, plasma, po, 60 mg, plasma, mean of 4 subjects, single oral 60 mg MPZ dose; read-out: MPZA C max
readout-label: Cmax (ng/mL)
Respond with the bare value in ng/mL.

Lab book: Cmax of `CS(=O)(=O)c1ccc2c(c1)N(CCCN1CCC(C(=O)O)CC1)c1ccccc1S2` noted as 397

* * *

Experiment: Rat PK study, single oral dose of metopimazine
Format: in vivo, Sprague Dawley rats
Details: Sprague Dawley, plasma; Rat (male), 45 mg/kg metopimazine single oral dose, mean (SD)
readout-label: Cmax (ng/mL)
Respond with the bare value in ng/mL.

Lab book: Cmax of `CS(=O)(=O)c1ccc2c(c1)N(CCCN1CCC(C(N)=O)CC1)c1ccccc1S2` noted as 1080

Lab book: Cmax of `CS(=O)(=O)c1ccc2c(c1)N(CCCN1CCC(C(=O)O)CC1)c1ccccc1S2` noted as 89

* * *

Experiment: Rat PK study, single oral dose of metopimazine
Format: in vivo, Sprague Dawley rats
Details: Sprague Dawley, plasma; Rat (male), 45 mg/kg metopimazine single oral dose, mean (SD)
readout-label: Tmax (h)
Respond with the bare value in h.

Lab book: Tmax of `CS(=O)(=O)c1ccc2c(c1)N(CCCN1CCC(C(N)=O)CC1)c1ccccc1S2` noted as 4

Lab book: Tmax of `CS(=O)(=O)c1ccc2c(c1)N(CCCN1CCC(C(=O)O)CC1)c1ccccc1S2` noted as 4
